- measured.on: hMcm10-ID (Homo sapiens)
- Construct: hMcm10-ID (residues 237 to 436) were expressed in E. coli strain BL21(DE3); 6xHis (HRV 3C site) (N, cleaved yes); made in house; host or cells: E. coli BL21(DE3)
- Sequence (Q7L590 237-436): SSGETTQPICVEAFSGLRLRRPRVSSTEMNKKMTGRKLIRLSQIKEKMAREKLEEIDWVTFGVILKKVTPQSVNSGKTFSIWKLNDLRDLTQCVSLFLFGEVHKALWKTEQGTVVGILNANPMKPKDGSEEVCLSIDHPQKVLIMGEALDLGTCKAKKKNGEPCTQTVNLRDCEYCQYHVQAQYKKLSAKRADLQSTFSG
- test.name: Surface plasmon resonance binding kinetics on immobilized hMcm10-ID (Biacore S200)
- reported.conditions: calculated from association and dissociation rate constants; 1:1 model, 6000–8000 RU; read-out: surface plasmon resonance hMcm10-ID kinetic KD
Counter-ions that a name gives are not always drawn.
measurement.type: Kd
Report field: quantity (unit follows the number).

A selection of reference data follows.
- Cc1nc(/N=N/c2cc(S(=O)(=O)O)ccc2S(=O)(=O)O)c(COP(=O)(O)O)c(C=O)c1O: 40 µM
- Cc1ccc(C(=O)Nc2ccc(S(=O)(=O)O)c3cc(S(=O)(=O)O)cc(S(=O)(=O)O)c23)cc1NC(=O)c1cccc(NC(=O)Nc2cccc(C(=O)Nc3cc(C(=O)Nc4ccc(S(=O)(=O)O)c5cc(S(=O)(=O)O)cc(S(=O)(=O)O)c45)ccc3C)c2)c1 [suramin, suramin sodium salt]: 0.57 µM

Let us move to another entry and its Kd.
Observed Kd on hMcm10-ID (Homo sapiens), entry "O=C(Nc1cccc(C(=O)Nc2ccc(S(=O)(=O)O)c3cc(S(=O)(=O)O)cc(S(=O)(=O)O)c23)c1)Nc1cccc(C(=O)Nc2ccc(S(=O)(=O)O)c3cc(S(=O)(=O)O)cc(S(=O)(=O)O)c23)c1" , equals 4.7 µM
